Biological target: T1, PUF4 RNA-binding domain (Saccharomyces cerevisiae, UniProt P25339 537-888)
T1 sequence: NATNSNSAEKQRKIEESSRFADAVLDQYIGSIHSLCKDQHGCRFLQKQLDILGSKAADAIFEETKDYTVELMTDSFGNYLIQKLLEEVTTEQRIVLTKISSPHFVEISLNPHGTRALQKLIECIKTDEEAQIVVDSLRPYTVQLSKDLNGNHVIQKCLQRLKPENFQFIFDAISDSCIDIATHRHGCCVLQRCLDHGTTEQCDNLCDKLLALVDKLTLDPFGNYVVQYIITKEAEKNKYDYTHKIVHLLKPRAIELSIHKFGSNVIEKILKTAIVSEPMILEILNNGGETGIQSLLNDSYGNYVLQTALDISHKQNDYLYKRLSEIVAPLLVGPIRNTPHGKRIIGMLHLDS
Experiment: Mg; RNA-MaP; 20 mM Na-HEPES pH 7.4, 30 mM KOAc, 0.75 mM MgCl2, 0.1% Tween-20, 5% glycerol, 0.1 mg/mL BSA, 2 mM DTT; 25 C; 0.0125-409.6 nM protein
Details: tags: N-His6-TEV cleaved; C-SNAP kept, Cy3B-labelled; label: tethered on chip by stalled RNA polymerase
RECORDED_METRIC: Kd (nM)
Hi! Could you send only the number? It should be in nM, unit omitted.

UCUCUUUGUACGGCUCUCUU (ssRNA) [Ic_S1_P3E.1_K3.1_C3.1_H3.1_A3.1_[T5C]_[A6G]_F3.1_[T7G]_[A8C]_T3.1]: 1730
Ib_S2_P5E.1_K5.1_C5.1_H5.1_A5.1_F5.1_[T8C]_[T9C]_T5.1 (ssRNA) RNA: UUUGAUUAAUAUGAUAUCGUUCUUUCUUGUAUUACCAUUCUUUCUCGAUAUCAUAUUAAUCUUU: 321

Please find the next binder below.
Requested read-out: Kd. Entry: Ic_S2_P5E.1_K5.1_C5.1_H5.1_A5.1_[T6G]_[A7T]_F5.1_[T8C]_[T9C]_[A10T]_T5.1 (ssRNA) RNA: UUUGAUUAAUAUGAUAUCGUUCUUUCUUGUAUGUCCUUUCUUUCUCGAUAUCAUAUUAAUCUUU
21.6

Data credit: paper PMC9352680
